Values were extracted from paper PMC6302136.

# System: PA-1 cells
# method description: ATP content (ATPlite) cell viability assay in PA-1 cells
# Type: cell-based, human
# settings: Homo sapiens, PA-1; 72 hours incubation; assay optimization; read-out: IC50 (PA-1)
measure name: pIC50
Answer as the number alone; pIC50 is minus log10 of concentration in mol/L.

Quote pIC50 reported for `COc1cccc2c1C(=O)c1c(O)c3c(c(O)c1C2=O)C[C@@](O)(C(=O)CO)C[C@@H]3O[C@H]1C[C@H](N)[C@H](O)[C@H](C)O1` please.
8.44

* * *

# Tested on: 11 gynecologic cancer cell lines
# method description: qHTS ATPlite cell viability, gynecologic cancer cell lines (ovarian, cervical, placental)
# Assay type: cell-based, human
# settings: Homo sapiens; average IC90 over the cell lines in which the compound is active; read-out: IC90
Each entry below carries its recorded IC90.
Your answer is read as nM, so omit the unit and give the number.

{"smiles": "CC(C)C[C@H](NC(=O)[C@H](Cc1ccccc1)NC(=O)c1cnccn1)B(O)O", "measure name": "IC90", "value measured": 218}
{"smiles": "Cc1[nH]c2ccccc2c1CCNCc1ccc(/C=C/C(=O)NO)cc1", "measure name": "IC90", "value measured": 719}
{"smiles": "CC[C@@H]1C(=O)N(C)c2cnc(Nc3ccc(C(=O)N[C@H]4CC[C@H](N5CCN(CC6CC6)CC5)CC4)cc3OC)nc2N1C(C)C", "measure name": "IC90", "value measured": 90}
{"smiles": "CC(C)C[C@H](NC(=O)[C@@H](NC(=O)c1cccc(-c2ccccc2)n1)[C@@H](C)O)B(O)O", "measure name": "IC90", "value measured": 391}
{"smiles": "CC[C@@]1(O)C(=O)OCc2c1cc1n(c2=O)Cc2c-1nc1ccccc1c2/C=N/OC(C)(C)C", "measure name": "IC90", "value measured": 275}

Now for the compound whose IC90 we want.
Quote IC90 reported for `CN(NC(=O)CC(=O)NN(C)C(=S)c1ccccc1)C(=S)c1ccccc1` please.
283
